The reported numbers originate from the supplement of paper PMC10724198.

- System: Saccharomyces cerevisiae
- assayProtocol: protein stability index of tFT-peptide fusion in deletion strain of DAS1 (PSI (0-1 scale)); higher = more stable (slower turnover)
Classify by measured protein stability index: class 1 if it is equal to or exceeds 0.6, class 0 if it is smaller.

SKHKKGQKQKIN : class 1

Task: Form field: protein stability index at least 0.6? Entry: PSVAASFWRVVG
Output: class 1

Task: Form field: protein stability index at least 0.6? Entry: KKHKKGQFQKIN
Output: class 1

====

Listing of recorded protein stability index by entry.
- Test system: Saccharomyces cerevisiae
- assayProtocol: protein stability index of tFT-peptide fusion (C-terminal peptide) (PSI (0-1 scale)); higher = more stable (slower turnover)
- experimentalParameters: genetic background: wild type; temperature: 30 C
Could you keep your reply to the number by itself?

Sample answers from the record:
ASPSPLPPLPPP : 0.718
PGRAARLLPRPL : 0.712
VPLYVDLYLSGA : 0.721
LPSPSSLPAPPV : 0.677
PRLHRRPAYTFI : 0.606

Task: Provide the documented protein stability index with Saccharomyces cerevisiae as the system for YVARRRPHPTGP
Output: 0.778

Task: Provide the documented protein stability index with Saccharomyces cerevisiae as the system for WPLSYLPLSSPP
Output: 0.701

Task: Provide the documented protein stability index with Saccharomyces cerevisiae as the system for FCRCNYLYRIPK
Output: 0.662

Task: Provide the documented protein stability index with Saccharomyces cerevisiae as the system for VSRGGMSGIVCL
Output: 0.773
